- TARGET: DNMT-1 (Homo sapiens, UniProt P26358)
- Sequence (P26358 whole entry): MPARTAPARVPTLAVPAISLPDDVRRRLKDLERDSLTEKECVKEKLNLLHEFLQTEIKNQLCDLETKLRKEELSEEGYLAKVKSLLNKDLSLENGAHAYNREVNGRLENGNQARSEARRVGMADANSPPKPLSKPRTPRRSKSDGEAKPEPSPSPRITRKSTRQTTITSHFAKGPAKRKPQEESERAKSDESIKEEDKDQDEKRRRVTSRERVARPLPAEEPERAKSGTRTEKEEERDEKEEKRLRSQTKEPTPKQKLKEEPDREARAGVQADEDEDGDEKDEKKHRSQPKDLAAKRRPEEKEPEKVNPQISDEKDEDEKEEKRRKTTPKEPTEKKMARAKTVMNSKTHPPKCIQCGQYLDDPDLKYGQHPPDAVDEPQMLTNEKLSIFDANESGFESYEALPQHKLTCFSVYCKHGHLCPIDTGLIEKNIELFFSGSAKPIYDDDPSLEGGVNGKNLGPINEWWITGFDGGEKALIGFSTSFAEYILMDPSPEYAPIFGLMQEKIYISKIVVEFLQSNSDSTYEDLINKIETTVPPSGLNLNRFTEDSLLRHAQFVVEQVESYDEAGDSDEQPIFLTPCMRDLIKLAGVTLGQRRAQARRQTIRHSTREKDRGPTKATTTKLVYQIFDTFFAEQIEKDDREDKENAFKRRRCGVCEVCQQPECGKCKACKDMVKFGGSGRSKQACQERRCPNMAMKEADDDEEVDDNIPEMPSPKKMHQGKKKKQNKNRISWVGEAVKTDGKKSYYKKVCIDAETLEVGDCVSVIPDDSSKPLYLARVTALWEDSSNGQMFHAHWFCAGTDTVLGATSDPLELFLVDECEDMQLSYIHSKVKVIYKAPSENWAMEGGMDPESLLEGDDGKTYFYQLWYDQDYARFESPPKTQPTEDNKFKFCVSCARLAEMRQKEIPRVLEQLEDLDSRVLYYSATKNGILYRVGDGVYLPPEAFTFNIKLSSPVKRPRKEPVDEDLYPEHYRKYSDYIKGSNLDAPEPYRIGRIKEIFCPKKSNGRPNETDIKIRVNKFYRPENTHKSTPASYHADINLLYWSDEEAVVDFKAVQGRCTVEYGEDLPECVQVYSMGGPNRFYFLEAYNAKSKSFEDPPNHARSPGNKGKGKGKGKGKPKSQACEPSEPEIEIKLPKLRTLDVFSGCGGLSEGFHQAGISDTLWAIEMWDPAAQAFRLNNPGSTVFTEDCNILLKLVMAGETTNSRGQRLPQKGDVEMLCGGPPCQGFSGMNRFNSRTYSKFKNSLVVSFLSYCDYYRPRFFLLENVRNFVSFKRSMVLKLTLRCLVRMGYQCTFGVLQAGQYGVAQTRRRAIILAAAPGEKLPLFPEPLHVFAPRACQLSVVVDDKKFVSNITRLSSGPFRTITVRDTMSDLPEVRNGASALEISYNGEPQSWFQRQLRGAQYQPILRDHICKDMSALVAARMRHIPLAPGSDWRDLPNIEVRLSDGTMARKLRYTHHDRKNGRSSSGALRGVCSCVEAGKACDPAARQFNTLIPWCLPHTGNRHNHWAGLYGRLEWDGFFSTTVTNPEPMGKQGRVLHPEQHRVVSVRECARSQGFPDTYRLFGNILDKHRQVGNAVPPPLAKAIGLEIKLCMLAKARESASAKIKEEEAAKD
EXPERIMENTAL_ENDPOINT: IC50 (µM)
Give just the number in µM; leave the unit off.

COc1cc(C(=O)Nc2ccc(C(=O)N3CCN(C(C)=O)CC3)cc2)ccc1C [Compound 03] :: 7
COCCCSc1n[nH]c(NC(=O)c2ccc(C)c(OC)c2)n1 [Compound 06] :: 38
COc1cc(C(=O)Nc2ccc(S(=O)(=O)NC(=O)c3ccccc3)cc2)ccc1C [Compound 04] :: 13
COc1cc(C(=O)Nc2ccc(C(=O)N3CCN(C(C)C)CC3)cc2)ccc1C [Compound 02] :: 15
COc1cc(C(=O)Nc2nc(SCC3OCCO3)n[nH]2)ccc1C [Compound 08] :: 30

So, COc1ccc(C(=O)Nc2ccc(C(=O)N3CCN(C(C)=O)CC3)cc2)cc1OC [Compound 10] ? Its IC50 was 4.71

Kindly note the recorded IC50 for CCOC(=O)CCCSc1n[nH]c(NC(=O)c2ccc(C)c(OC)c2)n1 [Compound 09] , which is 22

Form: compound = CCC(Sc1n[nH]c(NC(=O)c2ccc(OC)c(OC)c2)n1)C(=O)OC (stereo not drawn) [Compound 11] ; IC50 = 6

So, COC(=O)CCSc1n[nH]c(NC(=O)c2ccc(C)c(OC)c2)n1 [Compound 05] ? Its IC50 was 18
